These measurements were taken from patent US6476056B2.

- Test target: MDR (Rattus norvegicus, UniProt P16257)
Measured property: IC50 (nM)

Test smiles	IC50 (nM)
COc1ccccc1CCN(C(C)=O)c1ccccc1Oc1ccccc1	0.453

[1] CC(=O)N(Cc1ccccc1OC(C)C)c1ccc(Cl)cc1Oc1ccccc1
[2] COc1cccc(Oc2ccccc2N(Cc2ccccc2OC)C(C)=O)c1
[3] COc1ccccc1CN(C(C)=O)c1ccccc1Oc1ccc(Cl)cc1
[4] CC(=O)N(Cc1ccccc1OCCC(C)C)c1ccccc1Oc1ccccc1
Order the records by IC50, with each subsequent value no larger than the one before. Your reply should list the labels following the order given in the request.
3, 1, 2, 4
(3: 8.9 nM, 1: 0.87 nM, 2: 0.343 nM, 4: 0.163 nM)
